- Protocol details: Compound was evaluated for inhibition constant, in liver microsomes from 3-methylcholanthrene-exposed rats
- Design: species or system Rattus norvegicus, Microsome
Consider the cut-off 0.03 µM. If the recorded Ki is strictly smaller, the label is yes (1); if not, the label is no (0).

Inquiry: Consider the compound `O=c1cc(-c2ccccc2)oc2ccc3ccccc3c12` . Is its Ki strictly less than 0.03 µM?
Reply text: yes (1)

Inquiry: Consider the compound `O=c1cc(-c2ccccc2)oc2ccccc12` . Is its Ki strictly less than 0.03 µM?
Reply text: no (0)

Inquiry: Consider the compound `O=c1cc(-c2ccccc2)oc2cc3ccccc3cc12` . Is its Ki strictly less than 0.03 µM?
Reply text: no (0)

Inquiry: Consider the compound `O=c1cc(-c2ccccc2)oc2c1ccc1ccccc12` . Is its Ki strictly less than 0.03 µM?
Reply text: yes (1)

Inquiry: Consider the compound `CC(C)c1ccccc1-n1cccc1` . Is its Ki strictly less than 0.03 µM?
Reply text: no (0)

----------
- Organism: Rattus norvegicus
- Protocol details: Compound was evaluated for alpha -rate constant, in liver microsomes from beta-naphthoflavone-exposed rats
- Test context: Microsome
Measured quantity: Alpha Ki (µM)
Your answer is read as µM, so omit the unit and give the number.

Inquiry: # lookup: Alpha Ki of `O=c1cc(-c2ccccc2)oc2cc3ccccc3cc12`
Reply text: 11

Inquiry: # lookup: Alpha Ki of `CC(C)c1ccccc1-n1ccnc1`
Reply text: 1.4

Inquiry: # lookup: Alpha Ki of `O=c1cc(-c2ccccc2)oc2c1ccc1ccccc12`
Reply text: 0.048

Inquiry: # lookup: Alpha Ki of `c1ccc(-c2c[nH]cn2)cc1`
Reply text: 75

Inquiry: # lookup: Alpha Ki of `O=c1cc(-c2ccccc2)oc2ccc3ccccc3c12`
Reply text: 4

Inquiry: # lookup: Alpha Ki of `c1ccc(-n2cccc2)cc1`
Reply text: 430

----------
- Species: Rattus norvegicus
- Protocol details: Compound was evaluated for alpha -rate constant, in liver microsomes from 3-methylcholanthrene-exposed rats
- Test context: Microsome
Measured quantity: Alpha Ki (nM)
Your answer is read as nM, so omit the unit and give the number.

Inquiry: # lookup: Alpha Ki of `O=c1cc(-c2ccccc2)oc2c1ccc1ccccc12`
Reply text: 33

Inquiry: # lookup: Alpha Ki of `O=c1cc(-c2ccccc2)oc2cc3ccccc3cc12`
Reply text: 210

Inquiry: # lookup: Alpha Ki of `O=c1cc(-c2ccccc2)oc2ccccc12`
Reply text: 570

Inquiry: # lookup: Alpha Ki of `c1ccc(-c2c[nH]cn2)cc1`
Reply text: 64000

Inquiry: # lookup: Alpha Ki of `O=c1cc(-c2ccccc2)oc2ccc3ccccc3c12`
Reply text: 280

----------
- Protocol details: Compound was evaluated for inhibition constant, in liver microsomes from beta-naphthoflavone-exposed rats
- Design: species or system Rattus norvegicus, Microsome
pKi: −log10 of the molar value.
Assign class by pKi: not lower than 7 means label 1; lower than 7 means label 0.

Inquiry: Has `CC(C)c1ccccc1-n1ccnc1` a recorded pKi greater than or equal to 7?
Reply text: label 0

Inquiry: Has `O=c1cc(-c2ccccc2)oc2ccccc12` a recorded pKi greater than or equal to 7?
Reply text: label 0

Inquiry: Has `c1ccc(-n2cccc2)cc1` a recorded pKi greater than or equal to 7?
Reply text: label 0

Inquiry: Has `O=c1cc(-c2ccccc2)oc2cc3ccccc3cc12` a recorded pKi greater than or equal to 7?
Reply text: label 0

Inquiry: Has `O=c1cc(-c2ccccc2)oc2c1ccc1ccccc12` a recorded pKi greater than or equal to 7?
Reply text: label 1

Inquiry: Has `CC(C)c1ccccc1-n1cccc1` a recorded pKi greater than or equal to 7?
Reply text: label 0
